Source listed as PubChem BioAssay (NCI).

- Test system: OVCAR-5 ovarian
- Experiment Summary: NCI-60 one-dose screen, 48 h (100 = growth as untreated, 0 = no growth, -100 = all killed)
- Cond: 10 µM
This is part of a sample that, as a whole, favours compounds with a hit. Of some 83,000 tested, about 20% had one in any assay.
Measured growth values are reported for all entries that follow.
Write the answer as a number in %, unit excluded.

Worked set:
Compound	System Tested	Quantitative Readout
Cc1ccc(CNc2nc3ccc(OC/C(=C/F)CN)cc3o2)cn1	OVCAR-5 ovarian	103
C=C1[C@@H](C)C2[C@H](Cc3ccccc3)NC(=O)[C@]23[C@H](OC(C)=O)/C=C/[C@@](C)(O)C(=O)[C@@H](C)C/C=C/[C@H]3[C@@H]1O (stereo not given in full)	OVCAR-5 ovarian	96.1
CC1=C(CN(O)C(N)=O)C2=C(C)C3(CC3)[C@](C)(O)C(=O)C2=C1	OVCAR-5 ovarian	10.3
COC(=O)[C@H]1[C@@H](O)[C@@]2(O)c3c(OC)cc(OC)cc3O[C@@]2(c2ccc(OC)cc2)[C@@H]1c1ccccc1	OVCAR-5 ovarian	-6.47

Could you now consider this next compound?
Respond only with growth recorded for CC1=C2C(=C[C@@](C)(C=O)[C@@H]2O)C(=O)[C@](C)(O)C12CC2
6.05

---

- System: MDA-MB-435 melanoma
- Experiment Summary: NCI-60 one-dose screen, 48 h (100 = growth as untreated, 0 = no growth, -100 = all killed)
- Cond: 10 µM
- Protocol: Growth inhibition of the MDA-MB-435 human Melanoma tumor cell line is measured as a screen for anti-cancer activity. Cells are grown in 96 well plates and exposed to the test compound for 48 hours. Compounds are tested at a single concentration, which is 10^-5 M for most compounds. The reported endpoint is percent growth (GI% or GIPRCNT), where numbers from 0 - 100% represent growth inhibition, and numbers from -100% - 0 represent cell death. […]
About 83,000 compounds went through this panel and 20% of them were active in at least one assay; those are over-represented in the sample as a whole.
Measured growth values are reported for all entries that follow.
Write the answer as a number in %, unit excluded.

Worked set:
Molecule	growth (%)
COC1[C@@H]2C[C@H]3C(C)(C)O[C@@](C/C=C(/C)C(=O)O)(C2=O)[C@]32Oc3c(CC=C(C)C)c4c(c(O)c3C(=O)[C@H]12)C=CC(C)(C)O4 (some centres undefined)	-58.2
C[C@@H]1CCC/C=C/[C@H]2C[C@@H](O)C[C@@H]2[C@@H](O)/C=C/C(=O)O1	17.5
CN(CCF)/N=N/c1nc[nH]c1C(N)=O	39.6

Report its growth with MDA-MB-435 melanoma as the test system: CC(C)(O)/C=C/C(=O)[C@](C)(O)[C@H]1[C@H](O)C[C@@]2(C)[C@H]3CC=C4[C@@H](C[C@H](O)C(=O)C4(C)C)[C@]3(C)C(=O)C[C@]12C
9.08

---

Measured growth values are reported for all entries that follow.
- Test system: EKVX NSCLC
- Experiment Summary: NCI-60 one-dose screen, 48 h (100 = growth as untreated, 0 = no growth, -100 = all killed)
- Cond: 10 µM
- Procedure: Growth inhibition of the EKVX human Non-Small Cell Lung tumor cell line is measured as a screen for anti-cancer activity. Cells are grown in 96 well plates and exposed to the test compound for 48 hours. Compounds are tested at a single concentration, which is 10^-5 M for most compounds. The reported endpoint is percent growth (GI% or GIPRCNT), where numbers from 0 - 100% represent growth inhibition, and numbers from -100% - 0 represent cell death. […]
About 83,000 compounds went through this panel and 20% of them were active in at least one assay; those are over-represented in the sample as a whole.
Write the answer as a number in %, unit excluded.

Worked set:
Molecule	growth, %
CC1=C2C(=C[C@@](C)(COC(=O)c3ccc(S(=O)(=O)F)cc3)[C@@H]2O)C(=O)[C@](C)(O)C12CC2	-4.53
C=C1[C@@H](C)C2[C@H](Cc3ccccc3)NC(=O)[C@]23[C@H](OC(C)=O)/C=C/[C@@](C)(O)C(=O)[C@@H](C)C/C=C/[C@H]3[C@@H]1O (some centres undefined)	50.5
CC1=C[C@H]2O[C@@H]3C[C@@H](O)[C@](C)([C@@]2(C)CC1)[C@@]31CO1	38.3

Could you now consider this next molecule?
Report its growth with EKVX NSCLC as the test system: CC1=C[C@H]2O[C@@H]3C[C@H]4OC(=O)/C=C\C=C\[C@H]([C@@H](C)O)OCC[C@@H](C)[C@H](O)C(=O)OC[C@@]2(CC1)[C@]4(C)[C@]31CO1
-28.5
